Origin of values: paper PMC8405607

- procedure.text: phase I clinical plasma pharmacokinetics (noncompartmental); Reg 1: 3qw continuous; Reg 3: 3qw 2 weeks on/1 week off
- Format: in vivo, human
- setup.conditions: human, plasma, oral, 500 mg, 500 mg Reg.3, Cycle 1 Day 1, n 6, Tlast=24h; read-out: AUClast, Mean (SD)
reported.property: AUC(0-t) (ng·h/mL)
# output: bare number, implied unit ng·h/mL

Exercise: # get_value(readout='AUC(0-t)', item= COc1cc2c(cc1OC(C)C)[C@H](c1ccc(Cl)cc1)N(c1ccc(N(C)C[C@H]3CC[C@H](N4CCN(C)C(=O)C4)CC3)cc1)C(=O)C2 )
Solution: 76100

###

- procedure.text: phase I clinical plasma pharmacokinetics (noncompartmental); Reg 1: 3qw continuous; Reg 3: 3qw 2 weeks on/1 week off
- Type: in vivo, human
- setup.conditions: human, plasma, oral, 500 mg, 500 mg Reg.3, Cycle 1 Day 12, n 5; read-out: Cmax, Mean (SD)
reported.property: Cmax

Exercise: # get_value(readout='Cmax', item= COc1cc2c(cc1OC(C)C)[C@H](c1ccc(Cl)cc1)N(c1ccc(N(C)C[C@H]3CC[C@H](N4CCN(C)C(=O)C4)CC3)cc1)C(=O)C2 )
Solution: 10700 ng/mL

###

- procedure.text: phase I clinical plasma pharmacokinetics (noncompartmental); Reg 1: 3qw continuous; Reg 3: 3qw 2 weeks on/1 week off
- Type: in vivo, human
- setup.conditions: human, plasma, oral, 40 mg, 40 mg Reg.1, Cycle 2 Day 1, n 3; read-out: Cmax, Mean (SD)
reported.property: Cmax (ng/mL)
# output: bare number, implied unit ng/mL

Exercise: # get_value(readout='Cmax', item= COc1cc2c(cc1OC(C)C)[C@H](c1ccc(Cl)cc1)N(c1ccc(N(C)C[C@H]3CC[C@H](N4CCN(C)C(=O)C4)CC3)cc1)C(=O)C2 )
Solution: 780

###

- procedure.text: phase I clinical plasma pharmacokinetics (noncompartmental); Reg 1: 3qw continuous; Reg 3: 3qw 2 weeks on/1 week off
- Assay type: in vivo, human
- setup.conditions: human, plasma, oral, 80 mg, 80 mg Reg.1, Cycle 2 Day 1, n 3, Tlast=8h; read-out: AUClast, Mean (SD)
reported.property: AUC(0-t) (ng·h/mL)
# output: bare number, implied unit ng·h/mL

Exercise: # get_value(readout='AUC(0-t)', item= COc1cc2c(cc1OC(C)C)[C@H](c1ccc(Cl)cc1)N(c1ccc(N(C)C[C@H]3CC[C@H](N4CCN(C)C(=O)C4)CC3)cc1)C(=O)C2 )
Solution: 13800

###

- procedure.text: phase I clinical plasma pharmacokinetics (noncompartmental); Reg 1: 3qw continuous; Reg 3: 3qw 2 weeks on/1 week off
- Type: in vivo, human
- setup.conditions: human, plasma, oral, 40 mg, 40 mg Reg.1, Cycle 1 Day 8, n 2; read-out: Cmax, Mean (SD)
reported.property: Cmax

Exercise: # get_value(readout='Cmax', item= COc1cc2c(cc1OC(C)C)[C@H](c1ccc(Cl)cc1)N(c1ccc(N(C)C[C@H]3CC[C@H](N4CCN(C)C(=O)C4)CC3)cc1)C(=O)C2 )
Solution: 776 ng/mL

###

- procedure.text: phase I clinical plasma pharmacokinetics (noncompartmental); Reg 1: 3qw continuous; Reg 3: 3qw 2 weeks on/1 week off
- Type: in vivo, human
- setup.conditions: human, plasma, oral, 300 mg, 300 mg Reg.3, Cycle 1 Day 8, n 6, Tlast=8h; read-out: AUClast, Mean (SD)
reported.property: AUC(0-t) (ng·h/mL)
# output: bare number, implied unit ng·h/mL

Exercise: # get_value(readout='AUC(0-t)', item= COc1cc2c(cc1OC(C)C)[C@H](c1ccc(Cl)cc1)N(c1ccc(N(C)C[C@H]3CC[C@H](N4CCN(C)C(=O)C4)CC3)cc1)C(=O)C2 )
Solution: 24500
